System Under Test: ACSS2 in MDA-MB-468 cells (Homo sapiens)
Construct: endogenous in cells
Sequence (Q9NR19 whole entry): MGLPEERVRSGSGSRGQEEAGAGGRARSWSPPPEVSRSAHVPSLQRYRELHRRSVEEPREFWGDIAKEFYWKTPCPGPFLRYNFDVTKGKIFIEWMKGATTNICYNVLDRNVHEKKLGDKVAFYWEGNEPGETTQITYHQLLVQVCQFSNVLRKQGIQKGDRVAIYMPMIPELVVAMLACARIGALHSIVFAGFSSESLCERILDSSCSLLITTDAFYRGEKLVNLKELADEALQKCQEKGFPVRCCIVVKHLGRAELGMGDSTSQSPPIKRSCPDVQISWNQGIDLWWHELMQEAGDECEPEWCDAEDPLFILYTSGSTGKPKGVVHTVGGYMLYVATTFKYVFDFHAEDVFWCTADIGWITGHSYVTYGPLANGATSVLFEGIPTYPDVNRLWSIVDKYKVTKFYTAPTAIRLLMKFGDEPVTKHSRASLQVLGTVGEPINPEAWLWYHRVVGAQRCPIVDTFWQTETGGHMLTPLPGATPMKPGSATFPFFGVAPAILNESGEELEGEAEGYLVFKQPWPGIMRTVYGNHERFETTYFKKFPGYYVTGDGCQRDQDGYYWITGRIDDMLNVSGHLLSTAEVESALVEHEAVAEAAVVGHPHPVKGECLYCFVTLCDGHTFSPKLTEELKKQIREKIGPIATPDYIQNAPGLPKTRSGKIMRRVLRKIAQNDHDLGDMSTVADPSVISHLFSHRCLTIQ
Assay Details: Cellular fatty-acid IC50: 13C-acetate incorporation into fatty acids (palmitate), LC-MS
Condition Context: hypoxic conditions (1% O2), 75% charcoal stripped serum, 5 hours, 13C-acetate into palmitate, read-out: Cellular Fatty-acid IC50 High Serum MDA468
Measured Parameter: IC50

// known answers, use as guide
Structure Notation	IC50
Cc1cccc(C)c1-c1cc(-c2[nH]c(C)c(C(=O)Nc3cccc(C(F)(F)C4CC4)c3)[n+]2[O-])ccc1OC(F)F	0.02 to 0.05 µM
COc1ccc(-c2[nH]c(C)c(C(=O)Nc3cccc(-c4cnn(C)n4)c3)[n+]2[O-])cc1-c1c(C)cccc1C	< 0.02 µM

Observed IC50 on ACSS2 in MDA-MB-468 cells (Homo sapiens) for Cc1cccc(C)c1-c1cc(C#N)cc(-c2[nH]c(C)c(C(=O)Nc3cccc(C(F)(F)C4CC4)c3)[n+]2[O-])c1 , please.
0.02 to 0.05 µM

---

System Under Test: human ACSS1 protein (Homo sapiens)
Construct: purchased MyBioSource
Sequence (Q9NUB1 38-689): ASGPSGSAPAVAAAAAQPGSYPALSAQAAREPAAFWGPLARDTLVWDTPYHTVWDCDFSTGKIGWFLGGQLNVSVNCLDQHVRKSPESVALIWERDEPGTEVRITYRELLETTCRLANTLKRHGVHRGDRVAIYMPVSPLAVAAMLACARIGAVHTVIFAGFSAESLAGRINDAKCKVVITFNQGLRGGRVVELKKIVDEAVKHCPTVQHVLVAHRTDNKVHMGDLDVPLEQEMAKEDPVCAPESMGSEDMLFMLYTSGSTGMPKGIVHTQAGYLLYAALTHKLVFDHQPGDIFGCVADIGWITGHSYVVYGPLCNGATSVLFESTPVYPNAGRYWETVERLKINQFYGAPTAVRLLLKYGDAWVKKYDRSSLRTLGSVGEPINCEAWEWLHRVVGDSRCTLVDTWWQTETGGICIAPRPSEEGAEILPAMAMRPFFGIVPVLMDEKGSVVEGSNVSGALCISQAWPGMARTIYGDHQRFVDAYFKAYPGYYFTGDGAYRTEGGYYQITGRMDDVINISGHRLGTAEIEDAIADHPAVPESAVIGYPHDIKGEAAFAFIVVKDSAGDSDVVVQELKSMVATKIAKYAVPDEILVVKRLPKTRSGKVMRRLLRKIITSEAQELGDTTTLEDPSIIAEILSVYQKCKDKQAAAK
Assay Details: ACSS1 cell-free activity assay (pyrophosphatase-coupled, Biomol green)
Assay type: biochemical
Condition Context: 5 nM human ACSS1, 30 minutes at room temperature, absorbance at 620 nm
Measured Parameter: ACSS1 Biochemical IC50 (nM)

Molecule	Observed
Cc1cccc(C)c1-c1cc(OCCN2CCCC2)cc(-c2[nH]c(C)c(C(=O)Nc3cccc(C(F)(F)C4CC4)c3)[n+]2[O-])c1 [Compound 183]	Inactive
CCC(F)(F)c1cccc(NC(=O)c2c(C)[nH]c(-c3ccc(OC)c(-c4ncccc4C)c3)[n+]2[O-])c1 [Compound 100]	Inactive
CCC(F)(F)c1cccc(NC(=O)c2c(C)[nH]c(-c3cc(-c4c(C)cccc4C)c(OC)cc3F)[n+]2[O-])c1 [Compound 125]	Inactive

---

UniProtKB Q9NR19: reported IC50 for various compounds.

Structure Notation	Observed
CCCCc1cc(-c2c(C)cccc2C)cc(-c2[nH]c(C)c(C(=O)Nc3cccc(C(F)(F)C4CC4)c3)[n+]2[O-])c1	< 1 nM
CCC(F)(F)c1cccc(NC(=O)c2c(C)[nH]c(-c3ccc(OC)c(-c4c(C(F)(F)F)cccc4C(F)(F)F)c3)[n+]2[O-])c1	1 to 30 nM
CCC(F)(F)c1cccc(NC(=O)c2c(C)[nH]c(-c3cc(CCN4CCOCC4)c(OC)c(-c4c(C)cccc4C)c3)[n+]2[O-])c1	< 1 nM
CCC(F)(F)c1cccc(NC(=O)c2c(C)[nH]c(-c3ccc(OC)c(-c4c(C)cccc4C)c3)[n+]2[O-])c1	< 1 nM
CCN(C)C(=O)c1cccc(NC(=O)c2c(C)[nH]c(-c3ccc(OC)c(-c4c(C)cccc4C)c3)[n+]2[O-])c1	1 to 30 nM

Find the measured IC50: item CNC(=O)c1cccc(NC(=O)c2c(C)[nH]c(-c3cccc(-c4c(C)cccc4C)c3)[n+]2[O-])c1 , target or system UniProtKB Q9NR19.
< 1 nM

What IC50 appears in the records for this compound with UniProtKB Q9NR19? CCC(F)(F)c1cccc(NC(=O)c2c(C)[nH]c(-c3ccc(OC)c(-c4c(Cl)cccc4Cl)c3)[n+]2[O-])c1
< 1 nM

Lab request: please report IC50 under test system UniProtKB Q9NR19 for COCCN(C)C(=O)c1cccc(NC(=O)c2c(C)[nH]c(-c3ccc(OC)c(-c4c(C)cccc4C)c3)[n+]2[O-])c1
> 30 nM

# value lookup — system UniProtKB Q9NR19, readout IC50, item COc1cc(Cl)c(-c2[nH]c(C)c(C(=O)Nc3cccc(C(F)(F)C4CC4)c3)[n+]2[O-])cc1-c1c(C)cccc1C
< 1 nM

What reported IC50 corresponds to Cc1cccc(C)c1-c1cc(C#N)cc(-c2[nH]c(C)c(C(=O)Nc3cccc(C(F)(F)C4CC4)c3)[n+]2[O-])c1 on UniProtKB Q9NR19?
< 1 nM
